measurement-target: Toll-like receptor 8 (Homo sapiens)
Sequence (Q9NR97 whole entry): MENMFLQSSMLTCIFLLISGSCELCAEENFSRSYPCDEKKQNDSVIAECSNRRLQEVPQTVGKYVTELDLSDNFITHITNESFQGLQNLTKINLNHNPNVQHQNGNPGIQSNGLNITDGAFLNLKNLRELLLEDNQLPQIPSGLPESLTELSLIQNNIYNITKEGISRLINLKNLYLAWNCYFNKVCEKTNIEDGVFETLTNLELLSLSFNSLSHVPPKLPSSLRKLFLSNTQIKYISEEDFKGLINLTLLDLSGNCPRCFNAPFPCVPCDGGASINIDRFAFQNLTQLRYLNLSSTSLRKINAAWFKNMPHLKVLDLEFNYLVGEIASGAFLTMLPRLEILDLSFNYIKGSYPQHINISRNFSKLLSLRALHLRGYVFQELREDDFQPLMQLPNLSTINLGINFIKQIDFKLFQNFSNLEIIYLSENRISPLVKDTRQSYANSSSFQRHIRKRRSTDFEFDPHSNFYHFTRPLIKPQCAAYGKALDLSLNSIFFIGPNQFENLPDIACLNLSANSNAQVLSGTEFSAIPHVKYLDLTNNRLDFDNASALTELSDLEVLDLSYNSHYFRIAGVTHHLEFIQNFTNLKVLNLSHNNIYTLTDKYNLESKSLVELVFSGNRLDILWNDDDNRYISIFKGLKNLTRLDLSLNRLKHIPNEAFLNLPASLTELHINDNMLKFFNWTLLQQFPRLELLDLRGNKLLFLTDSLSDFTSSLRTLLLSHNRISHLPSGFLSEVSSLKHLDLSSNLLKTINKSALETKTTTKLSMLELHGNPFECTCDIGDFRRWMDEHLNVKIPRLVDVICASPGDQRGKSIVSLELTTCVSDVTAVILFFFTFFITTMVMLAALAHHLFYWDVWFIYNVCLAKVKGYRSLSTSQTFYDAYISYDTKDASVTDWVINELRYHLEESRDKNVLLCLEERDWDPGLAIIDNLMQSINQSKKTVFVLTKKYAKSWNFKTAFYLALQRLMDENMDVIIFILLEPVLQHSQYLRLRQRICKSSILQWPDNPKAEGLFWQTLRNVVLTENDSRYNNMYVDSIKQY
test-details: Agonist activity at human TLR8 transfected in HEK293 cells assessed as induction of SEAP production incubated overnight
Type: cell-based
reported-property: EC50

Challenge: I am curious: what EC50 value has been reported for `CCC[C@@H](CO)Nc1nc(N)nc(C)c1Cc1ccc(CNC2CN(C)C2)cc1OC` ?
Response given: 6.17 µM

Challenge: Would you kindly repeat that for `CCC[C@@H](CCO)Nc1nc(N)nc(C)c1Cc1ccc(CNCCC(N)=O)cc1OC` ?
Response given: > 10 µM

Challenge: Please answer likewise for `CCC[C@@H](CCO)Nc1nc(N)nc(C)c1Cc1ccc(CNCCO)cc1OC`
Response given: > 10 µM

Challenge: Then `CCC[C@@H](CCO)Nc1nc(N)nc(C)c1Cc1ccc(CNC2CNC2)cc1OC` ?
Response given: > 10 µM

Challenge: Subsequent entry: `CCC[C@@H](CCO)Nc1nc(N)nc(C)c1Cc1ccc(CN(C)CC(N)=O)cc1OC`
Response given: > 10 µM

Challenge: What do we get for `CCC[C@@H](CCO)Nc1nc(N)nc(C)c1Cc1ccc(CNC)cc1OC` ?
Response given: 6.46 µM

Challenge: One more molecule: `CCC[C@@H](CO)Nc1nc(N)nc(C)c1Cc1ccc(CN2CCNCC2)cc1OC`
Response given: 5.25 µM

Challenge: What do you get for `CCC[C@@H](CCO)Nc1nc(N)nc(C)c1Cc1ccc(CNC2CN(C)C2)cc1OC` ?
Response given: > 10 µM

Challenge: Record: `CCC[C@@H](CCO)Nc1nc(N)nc(C)c1Cc1ccc(CNCC(N)=O)cc1OC`
Response given: > 10 µM

---

measurement-target: Toll-like receptor 7 (Homo sapiens, UniProt Q9NYK1)
Sequence (Q9NYK1 whole entry): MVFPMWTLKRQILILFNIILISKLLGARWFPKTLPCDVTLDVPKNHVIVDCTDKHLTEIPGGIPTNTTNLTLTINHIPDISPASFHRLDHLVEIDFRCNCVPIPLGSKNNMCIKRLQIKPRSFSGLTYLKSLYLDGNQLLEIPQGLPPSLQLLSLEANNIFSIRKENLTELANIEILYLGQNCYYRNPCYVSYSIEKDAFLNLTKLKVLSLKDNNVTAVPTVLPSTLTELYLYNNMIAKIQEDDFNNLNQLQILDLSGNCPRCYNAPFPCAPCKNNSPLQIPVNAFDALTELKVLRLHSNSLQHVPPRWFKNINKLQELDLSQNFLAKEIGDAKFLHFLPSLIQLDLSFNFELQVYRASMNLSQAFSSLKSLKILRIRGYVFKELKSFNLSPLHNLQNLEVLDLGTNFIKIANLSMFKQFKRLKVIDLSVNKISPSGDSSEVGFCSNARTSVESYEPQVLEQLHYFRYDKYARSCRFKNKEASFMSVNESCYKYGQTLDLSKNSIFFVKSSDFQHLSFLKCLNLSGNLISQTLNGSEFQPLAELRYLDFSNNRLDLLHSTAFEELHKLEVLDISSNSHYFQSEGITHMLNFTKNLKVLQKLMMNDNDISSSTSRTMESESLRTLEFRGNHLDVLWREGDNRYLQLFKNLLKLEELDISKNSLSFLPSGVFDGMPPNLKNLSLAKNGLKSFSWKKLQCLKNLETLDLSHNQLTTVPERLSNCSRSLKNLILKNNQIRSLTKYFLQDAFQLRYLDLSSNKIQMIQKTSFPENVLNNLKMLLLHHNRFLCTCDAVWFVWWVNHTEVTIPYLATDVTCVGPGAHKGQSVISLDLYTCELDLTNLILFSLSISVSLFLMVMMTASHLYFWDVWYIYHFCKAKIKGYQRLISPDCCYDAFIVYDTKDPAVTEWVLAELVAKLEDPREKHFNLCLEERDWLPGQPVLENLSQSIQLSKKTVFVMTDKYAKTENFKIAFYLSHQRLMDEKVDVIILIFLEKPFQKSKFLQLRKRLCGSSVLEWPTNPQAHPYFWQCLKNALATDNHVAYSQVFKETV
test-details: Agonist activity at TLR7 (unknown origin)
Give measured EC50 for each item. Keep answers brief.
Number only, in µM; omit the unit.

Challenge: Dear colleague, I am looking for the recorded EC50 of the following compound: `CCCCNc1nc(N)nnc1OCc1ccccn1`
Response given: 0.17

Challenge: Then `CCCCNc1nc(N)nnc1OCCCc1ccccc1` ?
Response given: 2.94

Challenge: Likewise for `CCC[C@H](CCO)Nc1nc(N)nnc1OCc1nccc(OC)c1OC` ?
Response given: 0.24

Challenge: Next compound: `CCCCOc1nc(N)c2[nH]c(C#N)c(Cc3ccc(CN4CCCC4)nc3)c2n1`
Response given: 0.001

Challenge: Now give it for `CCCCNc1nc(N)nnc1OCCOC` too.
Response given: 4.75

Challenge: Cool, now `CCCCNc1nc(N)nnc1OC(C)C`
Response given: 8.27

Challenge: Thanks! And `CCCC[C@H](CCO)Nc1nc(N)nnc1OC` ?
Response given: 7.8

Challenge: Now the compound `CCOC(=O)C1=Cc2ccc(-c3cccc(C#N)c3)cc2N=C(N)C1`
Response given: 0.03

Challenge: Then what about the compound `CCCCNc1nc(N)nnc1OCc1cccnc1` ?
Response given: 1.71

Challenge: Another: `CCCCNc1nc(N)nnc1OCc1ccccc1`
Response given: 2.94

Challenge: Repeat with `CCCCNc1nc(N)nnc1OC`
Response given: 17.5

Challenge: What do you get for `CCCCOc1nc(N)c2[nH]cc(Cc3ccc(CN4CCCC4)cc3)c2n1` ?
Response given: 0.1

Challenge: Same lookup for `CCCCNc1nc(N)nnc1OCc1ccccc1F` , please.
Response given: 0.75

---

measurement-target: Toll-like receptor 8 (Homo sapiens)
Sequence (Q9NR97 whole entry): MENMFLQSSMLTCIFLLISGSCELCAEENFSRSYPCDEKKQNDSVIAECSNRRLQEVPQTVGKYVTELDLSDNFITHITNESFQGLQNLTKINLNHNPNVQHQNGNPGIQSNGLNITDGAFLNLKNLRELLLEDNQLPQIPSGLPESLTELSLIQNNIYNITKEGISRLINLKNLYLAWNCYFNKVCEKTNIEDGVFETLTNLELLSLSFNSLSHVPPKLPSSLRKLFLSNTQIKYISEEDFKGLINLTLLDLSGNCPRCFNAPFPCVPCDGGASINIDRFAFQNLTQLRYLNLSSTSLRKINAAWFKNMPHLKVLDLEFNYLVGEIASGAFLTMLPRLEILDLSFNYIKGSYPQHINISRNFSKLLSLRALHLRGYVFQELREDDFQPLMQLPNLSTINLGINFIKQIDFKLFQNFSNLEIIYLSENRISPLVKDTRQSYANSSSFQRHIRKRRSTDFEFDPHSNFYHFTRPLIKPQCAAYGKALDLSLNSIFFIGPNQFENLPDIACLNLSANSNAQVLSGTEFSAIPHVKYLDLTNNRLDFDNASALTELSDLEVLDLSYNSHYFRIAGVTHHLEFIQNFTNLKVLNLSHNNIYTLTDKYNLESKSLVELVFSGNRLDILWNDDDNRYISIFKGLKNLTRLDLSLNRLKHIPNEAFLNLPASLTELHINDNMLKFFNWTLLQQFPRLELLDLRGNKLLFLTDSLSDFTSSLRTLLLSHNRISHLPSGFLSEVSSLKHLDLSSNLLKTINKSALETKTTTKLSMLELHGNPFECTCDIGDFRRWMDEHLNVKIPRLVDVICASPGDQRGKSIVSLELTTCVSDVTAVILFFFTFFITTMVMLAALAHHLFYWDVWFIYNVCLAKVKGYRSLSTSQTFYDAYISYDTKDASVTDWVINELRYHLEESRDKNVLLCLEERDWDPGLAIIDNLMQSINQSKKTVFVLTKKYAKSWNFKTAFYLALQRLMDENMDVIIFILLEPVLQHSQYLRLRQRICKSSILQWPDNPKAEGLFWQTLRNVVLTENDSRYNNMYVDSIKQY
test-details: Agonist activity at human TLR8 in HEK-Blue hTLR8 cells assessed as activation of NFkappaB by SEAP reporter gene based spectrophotometry assay
Assay type: cell-based
test-context: hek-blue htlr8
Label YES when EC50 < 3000 nM; otherwise NO.

Challenge: Problem: For the molecule `CCCc1nc2c(N)nc3ccc(-n4cc([Si](C)(C)C)nn4)cc3c2s1` , is EC50 under 3000 nM?
Response given: NO

Challenge: Now try `CC(C)c1nc2c(N)nc3ccccc3c2s1` .
Response given: NO

Challenge: Please answer likewise for `CCCc1nc2c(NC(=O)CCN=[N+]=[N-])nc3ccccc3c2s1`
Response given: YES

Challenge: Try this molecule too: `CCCCc1nc2c(NC(=O)CCC)nc3ccccc3c2s1`
Response given: YES

Challenge: Ok, now `CCCCCc1nc2c(N)nc3ccccc3c2s1`
Response given: YES

Challenge: And for `CC[C@H](C)Cc1nc2c(N)nc3ccccc3c2s1` ?
Response given: YES

Challenge: Follow-up entry: `Nc1nc2ccccc2c2sc(CCCC(F)(F)F)nc12`
Response given: NO

Challenge: Moving on to the next molecule: `CC[C@H](C)c1nc2c(N)nc3ccccc3c2s1`
Response given: YES
